The values you see were collected from patent US12509439B2.

Assay: Microsomal intrinsic clearance, mouse liver microsomes
Type: in vitro ADME
Conditions: mouse liver microsomes (pooled), pH 7.4, 45 min, NADPH
PROPERTY MEASURED: microsomal CLint at 1 μM (µL/min/mg)
Numeric only. Scale: µL/min/mg

Specify microsomal CLint at 1 μM for N#Cc1cc(NC(=O)[C@H]2c3ccccc3C(=O)N(CC(F)(F)F)[C@@H]2c2cccnc2)ccc1F [(+) SJ-733, reference compound] and stop.
37

Specify microsomal CLint at 1 μM for `N#Cc1cc(NC(=O)[C@H]2c3ccccc3C(=O)N(CC(F)(F)F)[C@@H]2c2cnc(C(F)(F)F)nc2)ccc1F` and stop.
10.1
